system: HL-60(TB) leukemia; test: NCI-60 one-dose screen, 48 h (100 = growth as untreated, 0 = no growth, -100 = all killed); details: 10 µM unless noted
The panel holds about 83,000 compounds, 20% with a hit somewhere; the sample as a whole holds those more often.
Quantity Kind: growth (%)
One number for each entry, in %.

Consider the following illustrative entries.
[[record]]
compound = "COc1ccc(/C=C2\\COc3ccc(-c4ccccc4)cc3C2=O)cc1O"
tgt = "HL-60(TB) leukemia"
value_units = "%"
quantitative_result = -34

[[record]]
compound = "Nc1cc(-c2ccccc2)ccc1O"
tgt = "HL-60(TB) leukemia"
value_units = "%"
quantitative_result = 49.7

[[record]]
compound = "CCN(CC)N=Nc1nn(C(=O)Nc2ccc(Cc3ccccc3)cc2)c2ccc(Cl)cc12"
tgt = "HL-60(TB) leukemia"
value_units = "%"
quantitative_result = 60.4

[[record]]
compound = "CCCCCC(=O)OCc1ccccc1"
tgt = "HL-60(TB) leukemia"
value_units = "%"
quantitative_result = 89.4

[[record]]
compound = "COc1cc(NC(C)CCCN)c2ncccc2c1Oc1ccc(Cl)cc1 (stereo not given)"
tgt = "HL-60(TB) leukemia"
value_units = "%"
quantitative_result = 94.8


// each compound listed below needs its growth
1. CCCCC(O)(c1ccc(Cl)cc1)C(CN1CCOCC1)c1ccc(Cl)cc1 (stereo not given)
2. O=C(Nc1cccc2c1C(=O)c1cccc(Nc3cccc4c3C(=O)c3cccc(NC(=O)c5ccccc5)c3C4=O)c1C2=O)c1ccccc1
3. Cc1ccc(S(=O)(=O)OC[C@@]2(C)CC[C@]3(C)CC[C@]4(C)C(=C3C2)C=C[C@@H]2[C@@]3(C)CCCNC(C)(C)[C@@H]3CC[C@]24C)cc1

Output:
1: 53.6; 2: 118; 3: -58.4

// each compound listed below needs its growth
1. CC1(C)CC([P+](c2ccccc2)(c2ccccc2)c2ccccc2)=NN1
2. COc1cc(OC)c(Cl)cc1N

Output:
-49.2
131

---

system: MDA-MB-231 breast; experiment: NCI-60 one-dose screen, 48 h; conditions: 10 µM unless noted
About 83,000 compounds went through this panel and 20% of them were active in at least one assay; those are over-represented in the sample as a whole. The source made the active and inactive calls. The calls were made as follows: active = growth percent below 10; inactive = the rest.
Write down one outcome, taken from class 1 (active), class 0 (inactive)

Reference set, count: 5
[[record]]
compound = "CC12CCC(=O)C=C1C(O)CC1C2CCC2(C)C(O)CCC12 (configuration not stated)"
classification = "class 0"

[[record]]
compound = "Cc1ccc(C[As+](c2ccccc2)(c2ccccc2)c2ccccc2)cc1"
classification = "class 0"

[[record]]
compound = "COC1=CC(=O)OC(CCc2ccc3c(c2)OCO3)C1 (configuration not stated)"
classification = "class 0"

[[record]]
compound = "CCCCCCCCCCCCOc1ccc(C(=O)Oc2ccc(CSP3(=O)OCC4OC(n5cnc6c(N)ncnc65)C(F)C4OP(=O)(O)OCC4OC(n5ccc(=O)[nH]c5=O)C(F)C4O3)cc2)cc1 (configuration not stated)"
classification = "class 0"

[[record]]
compound = "Nc1c(Br)cc([N+](=O)[O-])cc1[N+](=O)[O-]"
classification = "class 0"


Input: Hi team, can someone confirm the assay call for C[CH2][Pb]([CH2]C)([CH2]C)[O]C(=O)COc1ccccc1 ?
Output: class 0

Input: Hi team, can someone confirm the assay call for C/C(=C\c1cc(C(F)(F)F)n(-c2ccc(N)cc2)n1)[C@@H]1C[C@@H]2O[C@]2(C)CCC[C@H](C)[C@H](O)[C@@H](C)C(=O)C(C)(C)[C@@H](O)CC(=O)O1 ?
Output: class 1

Input: Hi team, can someone confirm the assay call for [N-]=[N+]=NC(C(=O)O)c1ccccc1 (configuration not stated) ?
Output: class 0

Input: Hi team, can someone confirm the assay call for Nc1c(Br)cc2c3c(cccc13)-c1ccccc1-2 ?
Output: class 0

Input: Hi team, can someone confirm the assay call for O=C(CI)Nc1ccc(Br)cc1 ?
Output: class 0

Input: Hi team, can someone confirm the assay call for C=CCN1C(=O)C(CC)(CCC(C)C)C(=O)NC1=S (configuration not stated) ?
Output: class 0

Input: Hi team, can someone confirm the assay call for C/C(=N/OC(=O)N(C)C)c1ccc(Cl)cc1Cl ?
Output: class 0

Input: Hi team, can someone confirm the assay call for S=P(Nc1ccccc1)(Nc1ccccc1)c1ccccc1 ?
Output: class 0

Input: Hi team, can someone confirm the assay call for COC(C)(C)CCC[C@H](C)C/C=C/C(C)=C/C(=O)OC(C)C ?
Output: class 0

---

tested on: SK-MEL-2 melanoma; test: NCI-60 one-dose screen, 48 h (100 = growth as untreated, 0 = no growth, -100 = all killed); conditions: 10 µM unless noted
About 83,000 compounds went through this panel and 20% of them were active in at least one assay; those are over-represented in the sample as a whole.
Labelling field: enter criterion met if recorded growth is less than 80%. Enter criterion not met if it equals or exceeds that cut-off.

Reference set, count: 3
[[record]]
compound = "S=P(NC1CCCCC1)(N1CC1)N1CC1"
classification = "criterion not met"

[[record]]
compound = "CC(/C=N/N=C(N)N)=N\\N=C(N)N"
classification = "criterion met"

[[record]]
compound = "Fc1ccc(C2=NN(c3ccccc3)C(c3sc(N(CCCl)CCCl)nc3Cl)C2)cc1 (stereo not given)"
classification = "criterion not met"


Input: For COc1ccc(CN2CCN(Cc3ccccc3)CC2)c(O)c1 , is the recorded growth below the cut-off of 80%?
Output: criterion not met

Input: For O=C(NCCNC(=O)c1ccc([As](O)O)cc1)c1ccc([As](O)O)cc1 , is the recorded growth below the cut-off of 80%?
Output: criterion not met

Input: For C=CCN1C(=O)C(CC)(CCC(C)C)C(=O)NC1=S (stereo not given) , is the recorded growth below the cut-off of 80%?
Output: criterion not met

Input: For Cc1ccc(C[As+](c2ccccc2)(c2ccccc2)c2ccccc2)cc1 , is the recorded growth below the cut-off of 80%?
Output: criterion met

Input: For O=C1NC(=O)C(O)(C2(O)C(=O)NC(=O)NC2=O)C(=O)N1 , is the recorded growth below the cut-off of 80%?
Output: criterion met

Input: For CCOc1cc(/C=N\Nc2nnc(C)n2N)c(C)cc1N(CCCl)CCCl , is the recorded growth below the cut-off of 80%?
Output: criterion met

Input: For CCN(CC)c1ccc(C=C2C(=O)NC(=S)NC2=O)cc1 , is the recorded growth below the cut-off of 80%?
Output: criterion not met

Input: For CNC(=O)Oc1ccccc1 , is the recorded growth below the cut-off of 80%?
Output: criterion not met

Input: For NC(=O)SCC(=O)Nc1ccc([As](=O)(O)O)cc1 , is the recorded growth below the cut-off of 80%?
Output: criterion met

---

System: SK-MEL-2 melanoma
Assay: NCI-60 one-dose screen, 48 h (100 = growth as untreated, 0 = no growth, -100 = all killed)
Conditions: 10 µM unless noted
Description: Growth inhibition of the SK-MEL-2 human tumor cell line is measured as a screen for anti-cancer activity. Cells are grown in 96 well plates and exposed to the test compound for 48 hours. Compounds are tested at a single concentration, which is 10^-5 M for most compounds. The reported endpoint is percent growth (GI% or GIPRCNT), where numbers from 0 - 100% represent growth inhibition, and numbers from -100% - 0 represent cell death. For example, a value of 40 represents 60% growth inhibition. […]
The panel holds about 83,000 compounds, 20% with a hit somewhere; the sample as a whole holds those more often.
Quantity Kind: growth (%)
Give bare numbers, in %.

Consider the following illustrative entries.
[[record]]
compound = "O=C(CF)N(O)c1ccc(/C=C/c2ccccc2)cc1"
quantitative_result = 94.9

[[record]]
compound = "O=CC(Br)C(Br)c1ccccc1 (stereo unspecified)"
quantitative_result = 112

[[record]]
compound = "O=S(=O)(c1ccc(Cl)cc1)C(Cl)(Cl)Cl"
quantitative_result = 25.1


// each compound listed below needs its growth
1. Oc1c(Br)cc(Br)cc1Br.[Cu+2]
2. C/C(=N/OC(=O)N(C)C)c1cc(Cl)ccc1Cl

Output:
1. 95.3
2. 95.7

---

tested on: HL-60(TB) leukemia; assay: NCI-60 one-dose screen, 48 h (100 = growth as untreated, 0 = no growth, -100 = all killed); conditions: 10 µM unless noted
This is part of a sample that, as a whole, favours compounds with a hit. Of some 83,000 tested, about 20% had one in any assay.
Quantity Kind: growth (%)
Answers are plain numbers, in %.

// each molecule listed below needs its growth
1. O=Nc1c(-c2c(O)[nH]c3ncccc23)[nH]c2ccccc12
2. CC[C@@H]1O[C@H](O[C@@H](c2cnc[nH]2)[C@H](NC(=O)c2nc([C@H](CC(N)=O)NC[C@@H](N)C(N)=O)nc(N)c2C)C(=O)N[C@H](C)[C@H](O)[C@H](C)C(=O)N[C@@H](C(=O)NCCc2nc(-c3nc(C(=O)NCCCCN=C(N)N)cs3)cs2)[C@@H](C)O)[C@H](O[C@@H]2O[C@H](CO)[C@H](O)[C@H](OC(N)=O)[C@@H]2O)[C@H](C)[C@@H]1C
3. CC1(C)CC(OCCCC[P+](c2ccccc2)(c2ccccc2)c2ccccc2)CC(C)(C)N1O
4. C=C1C(=O)O[C@H]2[C@H]1CC/C(COC(=O)NCc1c[nH]c3ccc(Cl)cc13)=C\CC[C@@]1(C)O[C@@H]21
5. CCN(CC)Cc1cc(Nc2ccnc3cc(Cl)ccc23)ccc1O

Output:
1: 125; 2: 84.4; 3: -37.4; 4: -32.9; 5: 94.5

Sourced from PubChem BioAssay (NCI)
